Reported pIC50 values for the following compounds.
- Test system: NCI-H1975
- PROCEDURE_SUMMARY: cells
- Format: functional, cell-based
- MEASUREMENT_PARAMETERS: Homo sapiens, NCI-H1975, 72 h
- Description: Cytotoxicity against human NCI-H1975 cells harboring EGFR L858R/T790M double mutant assessed as growth inhibition after 72 hrs by MTT assay
pIC50: −log10 of the molar value.

The examples below pair each entry with its known result.
> print(dat)
                                   compound  measure.name  measured.result
1  O=C(/C=C/Cn1ccnc1)N1CCCOc2cc3ncnc(Nc4ccc(F)c(Cl)c4)c3cc21         pIC50           < 5.00
2  CC1CCCCN1C/C=C/C(=O)N1CCCOc2cc3ncnc(Nc4ccc(F)c(Cl)c4)c3cc21 (stereo not drawn)         pIC50           < 5.00

Attention now turns to another entry.
Sure, the documented pIC50 for CN1CCN(C/C=C/C(=O)N2CCCOc3cc4ncnc(Nc5ccc(F)c(Cl)c5)c4cc32)CC1 is < 5.00

Every entry's value here was drawn from ChEMBL document CHEMBL4431348.
